The origin of these recorded values is ChEMBL document CHEMBL1145187.

# Target or system: Estrogen receptor (Homo sapiens) (UniProt P03372)
# Sequence (P03372 whole entry): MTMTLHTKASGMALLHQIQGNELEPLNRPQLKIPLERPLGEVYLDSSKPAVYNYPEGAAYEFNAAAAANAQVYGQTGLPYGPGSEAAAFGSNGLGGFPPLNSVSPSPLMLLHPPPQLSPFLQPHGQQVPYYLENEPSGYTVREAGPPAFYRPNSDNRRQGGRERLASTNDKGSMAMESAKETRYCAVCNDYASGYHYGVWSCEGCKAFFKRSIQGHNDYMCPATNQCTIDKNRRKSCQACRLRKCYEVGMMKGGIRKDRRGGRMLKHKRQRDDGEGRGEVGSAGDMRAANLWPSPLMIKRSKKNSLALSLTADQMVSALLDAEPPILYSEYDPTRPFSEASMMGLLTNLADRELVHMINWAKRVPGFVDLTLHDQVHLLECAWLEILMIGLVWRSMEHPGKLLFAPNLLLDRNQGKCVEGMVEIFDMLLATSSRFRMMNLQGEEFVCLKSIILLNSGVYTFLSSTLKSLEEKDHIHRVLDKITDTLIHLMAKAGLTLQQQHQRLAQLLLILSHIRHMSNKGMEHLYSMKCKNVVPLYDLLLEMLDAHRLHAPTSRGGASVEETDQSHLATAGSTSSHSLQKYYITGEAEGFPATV
# Experimental details: Relative binding affinity for human estrogen receptor alpha
Result type: Relative binding affinity
Answers are plain numbers.

{"Smiles notation": "Oc1ccc(-n2nc3ccc(O)cc3c2Br)cc1", "Numeric result": 0.18}
{"Smiles notation": "CCCc1c2cc(O)ccc2nn1-c1ccc(O)cc1", "Numeric result": 0.04}

Field request: Relative binding affinity | item: Oc1ccc(-n2nc3ccccc3c2Cl)cc1 0.03

---

# Target or system: Estrogen receptor (Homo sapiens)
# Experimental details: Relative binding affinity for human estrogen receptor alpha
Answer each item with its documented Relative binding affinity.

Here is how some compounds turned out for Relative binding affinity.
{"Smiles notation": "Oc1ccc2nn(-c3ccc(O)c(Cl)c3)c(Cl)c2c1", "Relative binding affinity": 0.023}
{"Smiles notation": "Oc1ccc2nn(-c3ccccc3)cc2c1", "Relative binding affinity": "< 0.004"}
{"Smiles notation": "Oc1ccc(-n2cc3ccc(O)cc3n2)cc1", "Relative binding affinity": 0.008}

Dear colleague, could you send me Relative binding affinity for each of the items below? Thanks.
1. Oc1ccc2nn(-c3ccc(O)c(Cl)c3)cc2c1
2. Oc1ccc(-n2nc3cc(O)ccc3c2Cl)cc1
3. Oc1ccc(-n2nc3ccc(O)cc3c2C(F)(F)F)cc1

1: 0.07; 2: 0.08; 3: 3.9

Item under review: C=CCc1c2cc(O)ccc2nn1-c1ccc(O)cc1 . Reported Relative binding affinity? 0.06
